Ref: PubChem BioAssay AID1159580

# assay_details: chemical genetic growth profiling, strain panel (AID 1159580);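 also: tested at 20 µM; growth read once vehicle control cultures reached saturation at 30 °C; 1 = growth at the plate median or of vehicle wells; lower values mean less growth of the strain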
# condition_details: S. cerevisiae strains, growth OD, strain wild type, hits give low values
Hit rate of the full screen: of about 5,500 compounds, about 2,000 (36%) were called active. Not shown: some 18% with an inconclusive outcome. The list shows a part of the results.
Listed here: items and their measured normalized growth.
No unit in the answer, only the number.

Worked examples, 2 compounds total:
compound | normalized growth
N/C(=N/OC(=O)Nc1ccccc1)c1ccc(C2SCCS2)cc1 | 0.988
COC[C@]12CN(C=O)C3[C@@H]4[C@H](OC)C1[C@]3(C1CC3(O)C(OC)C(O)C4(OC(C)=O)C1C3OC(=O)c1ccccc1)[C@@H](OC)C[C@H]2O (stereo partly drawn) | 1.02

Moving on to the next compound.
The reported normalized growth of the compound `COc1ccc(-c2cc(=O)c3c(OC)cc(OC)cc3o2)cc1` was 0.992
